tested on: CAKI-1 renal; assay: NCI tumour cell line growth inhibition, 48 h
Listed compounds paired with reported GI50

COc1ccc2nc3ccccc3c(NCc3ccccc3)c2c1
1940 nM
C[C@@H](Oc1cc(-c2cnn(C3CCNCC3)c2)cnc1N)c1c(Cl)cc(F)cc1Cl
3170 nM
CC(=O)[CH-]C(=O)c1ccccc1.CC(=O)[CH-]C(=O)c1ccccc1.CC(=O)[CH-]C(=O)c1ccccc1.[Br-].[Zr+4]
37200 nM
CCOC(=O)c1cc2c(n1Cc1ccccc1OC)-c1oncc1CCC2
3510 nM
CC1(C)CC[C@]2(CO)CC[C@]3(C)C(=CC[C@@H]4[C@@]5(C)CCNCC(C)(C)[C@@H]5CC[C@]43C)[C@@H]2C1
3640 nM
COC(=O)[C@H](CCCCNC(=O)OCc1ccccc1)NC(=O)[C@@H](NC(=O)Nc1cc(C(F)(F)F)cc(C(F)(F)F)c1)C(C)C
> 10000 nM
CCN(CC)CCCNc1cc(OC)c(OC)c2cccnc12
2150 nM
O=C(COc1cccc(/C=C2\Oc3ccc4ccccc4c3C2=O)c1)c1ccc([N+](=O)[O-])cc1
45900 nM
Cc1nn(-c2ccccc2)c2nc(C)n(-c3ccc(Br)cc3)c(=O)c12
416 nM
COc1ccc(-c2nnc(Nc3nc(O)c(C4=c5cc(Br)ccc5=NC4=O)s3)o2)cc1
17200 nM

Tell me the measured GI50 of "O=C(CCl)Nc1ccc(Cc2ccc(NC(=O)CCl)cc2)cc1" , please.
1620 nM

What measured GI50 goes with "C1=C\CCCCN2CC[C@H]3[C@H](CCCC/C=C\CCCN4C[C@@H](CCCCC/1)C[C@@H]3C4)C2" ?
5130 nM

---

tested on: M14 melanoma; assay: NCI tumour cell line growth inhibition, 48 h
Measured TGI values are reported for all entries that follow.

O=Cc1ccc(-c2ccc(S(=O)(=O)O)cc2)o1
> 100 µM
CC(C)CC1NC(=O)CCC(NC(=O)C(Cc2ccc(O)cc2)NC(=O)OCc2ccccc2)C(=O)NC(Cc2ccccc2)C(=O)NC(Cc2ccccc2)NC1=O (stereo not given)
> 100 µM
O=C(NCCN(CCNC(=O)c1cccc(=O)n1O)CCNC(=O)c1cccc(=O)n1O)c1cccc(=O)n1O
> 100 µM
O=C(COc1cccc(/C=C2\Oc3ccc4ccccc4c3C2=O)c1)c1ccc([N+](=O)[O-])cc1
53.4 µM
Cn1c(N)c(/C=C/C(=O)Oc2ccccc2)c(=O)n(C)c1=O
> 100 µM
COC(=O)[C@H](C)N(C)C(=O)[C@H](C)N1[C@@H](c2ccccc2)COC1(C)C
> 100 µM

Continue with the next molecule.
Looking for the measured TGI of COC(=O)C(C#N)C1NC(=O)c2ccccc21 (stereo not given) , can you help?
> 100 µM

---

tested on: ACHN renal; experiment: NCI tumour cell line growth inhibition, 48 h
quantity-name: TGI (µM)
# number only, unit µM dropped from output

Illustrative cases are given below, each with its answer.
C/C=C(\C)C(=O)O[C@@H]1C=CC(=O)O[C@H]1CNC(=O)[C@H](C)O
31.2
Cc1ccc(NC2=CC(=O)C(=O)c3ccccc32)cc1
5.33

Next:
For the molecule CC(=O)O[C@H]1CC[C@]2(C)C3C(=O)C[C@]4(C)[C@@H](C(C)CCC(=O)O)CC[C@@]4(C)[C@@H]3CC[C@H]2C1(C)C (some centres not stated) , what TGI is on record?
35.4
